target: JNK1 (Homo sapiens, UniProt P45983); construct: purchased Carna Biosciences; assay: JNK1 biochemical assays (one or more of: time resolved fluorescence, Z'-LYTE Cascade, radioactive); conditions: tested in one or more of the JNK1 biochemical assays; read-out: Act. Level (JNK1 biochemical assay IC50 activity level)
Sequence (P45983 whole entry): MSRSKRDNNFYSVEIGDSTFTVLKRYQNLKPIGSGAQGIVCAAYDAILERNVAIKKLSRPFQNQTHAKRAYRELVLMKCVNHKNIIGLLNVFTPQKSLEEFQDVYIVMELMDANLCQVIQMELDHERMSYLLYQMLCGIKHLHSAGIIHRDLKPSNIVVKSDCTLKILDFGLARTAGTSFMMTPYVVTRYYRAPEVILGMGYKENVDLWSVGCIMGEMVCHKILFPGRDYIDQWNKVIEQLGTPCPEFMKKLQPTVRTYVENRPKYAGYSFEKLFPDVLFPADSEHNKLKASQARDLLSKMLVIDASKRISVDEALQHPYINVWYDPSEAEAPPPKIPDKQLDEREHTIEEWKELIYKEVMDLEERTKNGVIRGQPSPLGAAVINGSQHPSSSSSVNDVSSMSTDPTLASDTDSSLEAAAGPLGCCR
Observed property: IC50

Use these answered entries as a reference point.
INSERT INTO assay_data (mol_smiles, system_tested, result) VALUES
  ('NC(=O)c1cnc(NC2CC2)nc1N[C@H]1CC[C@@H](CO)CC1', 'JNK1 (Homo sapiens, UniProt P45983)', '0.2 to 0.8 µM'),
  ('CCNC(=O)[C@H]1CC[C@@H](Nc2nc(NC(C)C)ncc2C(N)=O)CC1', 'JNK1 (Homo sapiens, UniProt P45983)', '1 to 10 µM'),
  ('CCC(=O)N1CCC(Nc2ncc(C(N)=O)c(N[C@H]3CC[C@@H](O)CC3)n2)CC1', 'JNK1 (Homo sapiens, UniProt P45983)', '< 0.2 µM');

So for CNC(=O)[C@H]1CC[C@@H](Nc2nc(NC3CCCC3)ncc2C(N)=O)CC1 , the logged IC50 turned out to be 1 to 10 µM

---

Exercise: for every item that follows, state its recorded pIC50.
target: JNK1 (Homo sapiens); construct: purchased Carna Biosciences; experiment: JNK1 biochemical assays (one or more of: time resolved fluorescence, Z'-LYTE Cascade, radioactive); conditions: Table 2; JNK1 IC50 activity level; read-out: Act. Level
pIC50: −log10 of the molar value.

Use these answered entries as a reference point.
INSERT INTO measurements (compound, result) VALUES
  ('NC(=O)c1cnc(N[C@@H]2CCOc3ccccc32)nc1N[C@@H]1CCC[C@H](O)C1 [Example B-79]', '> 6.70'),
  ('CN(C)CCNc1ncc(C(N)=O)c(Nc2ccccc2)n1 [Example B-61]', '5.00 to 6.00'),
  ('COc1ccc(C)c(Nc2ncc(C(N)=O)c(Nc3ccccc3)n2)c1 [Example B-34]', '> 6.70');

Lab note: each compound below needs its pIC50 filled in.
1. NC(=O)c1cnc(N[C@H]2CCc3ccccc3C2)nc1N[C@@H]1CCC[C@H](O)C1 [Example B-85]
2. NC(=O)c1cnc(NC2CCCCC2)nc1Nc1ccccc1 [Example B-45]

Result:
1. 6.00 to 6.10
2. > 6.70

---

biological target: JNK1 (Homo sapiens, UniProt P45983); construct: purchased Carna Biosciences; test: JNK1 biochemical assays (one or more of: time resolved fluorescence, Z'-LYTE Cascade, radioactive); conditions: Table 2; JNK1 IC50 activity level; read-out: Act. Level
Observed property: IC50

INSERT INTO assay_data (molecule, observed_property, result) VALUES
  ('NC(=O)c1cnc(NCc2cccc(F)c2)nc1Nc1ccccc1', 'IC50', '200 to 800 nM'),
  ('CC1(C)CCC(Nc2ncc(C(N)=O)c(N[C@@H]3CCC[C@H](O)C3)n2)c2ccccc21 (stereo partly drawn)', 'IC50', '200 to 800 nM'),
  ('CC(C)(C)Nc1ncc(C(N)=O)c(Nc2ccccc2)n1', 'IC50', '< 200 nM'),
  ('NC(=O)c1cnc(NCC2CCCCC2)nc1Nc1ccccc1', 'IC50', '200 to 800 nM'),
  ('NC(=O)c1cnc(N[C@@H]2CCc3cnccc3C2)nc1N[C@@H]1CCC[C@H](O)C1', 'IC50', '< 200 nM'),
  ('NC(=O)c1cnc(N[C@@H]2CCc3cccnc3C2)nc1N[C@@H]1CCC[C@H](O)C1', 'IC50', '< 200 nM');

Lab note: each molecule below needs its IC50 filled in.
1. CC(=O)NCCNc1ncc(C(N)=O)c(Nc2ccccc2)n1
2. NC(=O)c1cnc(NCc2cc(F)cc(F)c2)nc1Nc1ccccc1
3. COCCNc1ncc(C(N)=O)c(Nc2ccccc2)n1

Result:
["1000 to 10000 nM", "800 to 1000 nM", "800 to 1000 nM"]

Provenance of the data: patent US12129237B2
